Biological target: T1, human VEGF (human, UniProt P15692 207-395, biotinylated (site not stated))
T1 construct: Biotinylated human VEGF generated internally; also called hVEGF; hVEGF-biotin
T1 sequence: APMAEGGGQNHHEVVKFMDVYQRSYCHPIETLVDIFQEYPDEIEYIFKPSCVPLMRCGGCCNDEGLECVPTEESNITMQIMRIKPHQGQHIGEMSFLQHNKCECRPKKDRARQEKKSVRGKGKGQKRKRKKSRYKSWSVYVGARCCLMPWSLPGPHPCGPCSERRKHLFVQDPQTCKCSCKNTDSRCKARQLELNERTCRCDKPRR
Assay: Biacore SPR, hVEGF
Listed below: koff values for each entry.
# value in s⁻¹; strip the unit string

BINDER	koff (s⁻¹)
HC6T (Fab, V domains shown, Tagged heavy chain CDR variant HC6 with NVS4 light chain) VH: EVQLVESGGGLVQPGGSLRLSCTASGFSLTNYYYMTWVRQAPGKGLEWVGFIDPQNQPYYATWAKGRFTISRDNSKNTLYLQMNSLRAEDTAVYYCAGGNHNSGWGLNIWGQGTLVTVSS VL: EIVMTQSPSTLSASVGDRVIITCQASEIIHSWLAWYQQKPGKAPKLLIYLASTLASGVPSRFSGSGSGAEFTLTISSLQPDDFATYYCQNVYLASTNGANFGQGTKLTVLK	0.00624
NVS4 light chain variant H30K (Fab, V domains shown, CDR variant of NVS4) VH: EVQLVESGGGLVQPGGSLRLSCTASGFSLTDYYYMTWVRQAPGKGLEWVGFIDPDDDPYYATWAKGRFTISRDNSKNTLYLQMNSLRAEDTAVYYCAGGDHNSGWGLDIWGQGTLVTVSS VL: EIVMTQSPSTLSASVGDRVIITCQASEIIKSWLAWYQQKPGKAPKLLIYLASTLASGVPSRFSGSGSGAEFTLTISSLQPDDFATYYCQNVYLASTNGANFGQGTKLTVLK	0.000149

Next up:
// returns reported koff for input NVS4 heavy chain variant D100N (Fab, V domains shown, CDR variant of NVS4) VH: EVQLVESGGGLVQPGGSLRLSCTASGFSLTDYYYMTWVRQAPGKGLEWVGFIDPDDDPYYATWAKGRFTISRDNSKNTLYLQMNSLRAEDTAVYYCAGGNHNSGWGLDIWGQGTLVTVSS VL: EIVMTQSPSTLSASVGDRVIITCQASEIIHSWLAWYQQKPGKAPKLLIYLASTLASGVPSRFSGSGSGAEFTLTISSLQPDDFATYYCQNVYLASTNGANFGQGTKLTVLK
2.57e-05
